TARGET_ENTITY: recombinant soluble homotrimeric HA, A/Hong Kong/156/97 (H5N1) (influenza A virus A/Hong Kong/156/97 (H5N1))
PROTOCOL_SUMMARY: microarray, trimeric HA, transfection supernatant
DETAILS: remark: other sources report otherwise
ENDPOINT_LABEL: Trimeric HA Binding RLU (RLU)
Give the number; RLU is assumed, so skip it.

Problem: Could you tell me which Trimeric HA Binding RLU is on file for TCN-540 (5060_F05) (antibody, V domains shown) VH: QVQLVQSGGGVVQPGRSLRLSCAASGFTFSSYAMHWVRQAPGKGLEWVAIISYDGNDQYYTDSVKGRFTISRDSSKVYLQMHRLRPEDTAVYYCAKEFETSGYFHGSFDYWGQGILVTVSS VL: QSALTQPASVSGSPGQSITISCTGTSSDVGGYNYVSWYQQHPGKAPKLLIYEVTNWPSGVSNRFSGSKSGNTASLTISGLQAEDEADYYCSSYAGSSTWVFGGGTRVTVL ?
Result: 1550

Problem: Moving on to the next binder: TCN-543 (5081_G23) (antibody, V domains shown) VH: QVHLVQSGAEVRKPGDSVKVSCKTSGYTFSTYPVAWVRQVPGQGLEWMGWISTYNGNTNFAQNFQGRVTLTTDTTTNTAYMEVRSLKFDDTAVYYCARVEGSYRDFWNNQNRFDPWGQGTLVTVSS VL: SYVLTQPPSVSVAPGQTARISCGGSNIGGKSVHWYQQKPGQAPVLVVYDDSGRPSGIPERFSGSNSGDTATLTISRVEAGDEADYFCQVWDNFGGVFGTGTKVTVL
Result: 1430
